System: PC-3 prostate
Assay: NCI tumour cell line growth inhibition, 48 h; in the data active means GI50 below about 0.43 µM; inactive means the rest
Your response should consist of one outcome taken from active, inactive

Below, 5 molecules whose answers are already recorded.
> print(dat)
                                   molecule  classname
1   Clc1coc2nc3ccccc3c(Nc3ccc4c(c3)OCO4)c12   inactive
2        Cc1c2cccnc2c(C)c2c1c1cc(CO)ccc1n2C   inactive
3  CCN1CCN(c2ccc(Nc3cc(N(C)C(=O)Nc4c(Cl)c(OC)cc(OC)c4Cl)ncn3)cc2)CC1   inactive
4  COc1ncnc(C2CC2)c1-c1ncc2cnn(Cc3ccc(-c4nc(C(F)(F)F)cn4C(C)C)cc3)c2n1   inactive
5  CCOC(=O)/C=C/C(C(=O)/C=C/c1ccc(OC2CCCCO2)c(OC)c1)=C(O)\C=C\c1ccc(OC2CCCCO2)c(OC)c1 (configuration not stated)   inactive

Prompt line: Just curious, what result did COc1ccc(N(C)c2ncnc3occ(C)c23)cc1 get here?
Response line: active

Prompt line: Also Cc1ccc(Cl)cc1Nc1nc(C(F)(F)F)ccc1C(=O)N1CCN(c2ccc(F)cc2)CC1 , if possible.
Response line: inactive

###

Tested on: NCI-H226 lung
Assay: NCI tumour cell line growth inhibition, 48 h
experimentalReadout: TGI

> print(dat)
                                   molecule  experimentaltarget  resultvalue
1  CCC[CH2][Ge]([CH2]CCC)([CH2]CCC)[O]C(=O)CC(=O)c1ccccc1       NCI-H226 lung      17.2 µM
2  NC(=NCCCOc1ccc(Cl)cc1)Nc1ccc(C(F)(F)F)cc1       NCI-H226 lung      19.2 µM
3   Nc1nc(Cl)c(N)c(NC23CC4CC(CC(C4)C2)C3)n1       NCI-H226 lung      4.22 µM
4   C[N+](C)([O-])CCC=C1c2ccccc2CCc2ccccc21       NCI-H226 lung      67.5 µM
5  O=C1c2ccccc2C(=O)C1(Cl)C1(S(=O)(=O)O)c2ccccc2-c2ccccc21       NCI-H226 lung     > 100 µM
6  C[C@]12CC[C@H](O)CC1=CC[C@@H]1[C@@H]2CC[C@]2(C)C(=O)[C@@H](N3CCOCC3)C[C@@H]12       NCI-H226 lung     > 100 µM

Prompt line: What does the record list as TGI for C=C(C)C(CC=C(C)C)CC12CC(CC=C(C)C)C(C)(C)C(CC=C(C)C)(C(=O)C(Cc3ccc(O)c(O)c3)=C1O)C2=O (centres undefined) ?
Response line: > 100 µM

Prompt line: Now try Clc1coc2nc3ccccc3c(Nc3ccc4c(c3)OCO4)c12 .
Response line: > 26.2 µM

Prompt line: Thanks! And CCCCc1c(OC)cc(O)c2c1C(=O)c1[nH]c(C(=O)O)c(O)c(=O)c1C2=O ?
Response line: 23.6 µM

Prompt line: What do we get for COc1ccc(C(C)NNC(=O)c2ccncc2)c(OC)c1 (centres undefined) ?
Response line: > 100 µM

Prompt line: Repeat with O=C(/C=C/c1ccc(O)cc1)OC[C@@H](O)COC1OC(CO)C(O)C(O)C1O (some centres undefined)
Response line: > 100 µM

Prompt line: Queued: CC(=O)Nc1ccc(C(=O)NN2C(=O)C(Cl)C2c2ccccc2)cc1 (centres undefined)
Response line: > 100 µM

Prompt line: Another molecule to look at: O=S(=O)(c1ccccc1)n1c2cc3cccnc3nc2c2cccnc21
Response line: > 100 µM

Prompt line: Thanks! And CCCCOC(=O)C1C(c2ccc(Cl)cc2)NC(c2ccc(Cl)cc2)C(C(=O)OCCCC)S1(=O)=O (centres undefined) ?
Response line: > 100 µM

###

Test system: NCI/ADR-RES ovarian
Assay: NCI tumour cell line growth inhibition, 48 h
experimentalReadout: TGI

> print(dat)
                                smilesentry  experimentalreadout  resultvalue
1  O=[N+]([O-])c1ccc(Cl)c(C=NC23CC4CC(CC(C4)C2)C3)c1                  TGI      > 10 µM
2  C[C@]12CC[C@H](O)CC1=CC[C@@H]1[C@@H]2CC[C@]2(C)C(=O)[C@@H](N3CCOCC3)C[C@@H]12                  TGI     > 100 µM

Prompt line: TGI lookup needed for COc1ccc(C(=O)Sc2c(-c3ccccc3)c(=O)n(-c3ccccc3)c(=S)n2-c2ccccc2)cc1 , thanks.
Response line: > 100 µM

###

Tested on: HOP-92 NSCLC
Test: NCI tumour cell line growth inhibition, 48 h
Hi all, reminder that labels come from TGI, split as low interval = under 10 µM, middle interval = from 10 µM up to 40 µM, high interval = 40 µM and over

Some entries whose results are on file:
compound	className
CCCCCN=Cc1c(O)c(O)c(C(C)C)c2cc(C)c(-c3c(C)cc4c(C(C)C)c(O)c(O)c(C=NCCCCC)c4c3O)c(O)c12	middle interval
CC(=O)OCc1cc(CCC(=O)NCCNc2c3ccccc3nc3ccccc23)cc(COC(C)=O)c1O[Si](C)(C)C(C)(C)C	middle interval
C=CCNC1=C2C[C@@H](C)C[C@@H](OC)[C@H](OC(=O)CCCCN)[C@H](C)/C=C(\C)[C@@H](OC(N)=O)[C@H](OC)/C=C\C=C(/C)C(=O)NC(=CC1=O)C2=O	middle interval
C#Cc1cccc(Nc2ncnc3cc(OC)c(OCCCCCCC(=O)NO)cc23)c1	low interval
CN1C(=O)N/C(=C\c2ccc(S(=O)(=O)NN)cc2)C1=O	high interval

Prompt line: Pick a category. Item: Cc1ccc(NC(=O)c2c(C)nc(=O)n3c2N(/N=C/c2ccc(Cl)cc2)CC3)cc1
Response line: middle interval

Prompt line: Input CC(=O)Nc1cc(C(=O)Nc2cc(C(=O)N3CC(CCl)c4c3cc(N)c3ccccc43)nn2C)nn1C (stereo not drawn)
Response line: low interval

Prompt line: Try CCOC(=O)/C=C/C(C(=O)/C=C/c1ccc(OC2CCCCO2)c(OC)c1)=C(O)\C=C\c1ccc(OC2CCCCO2)c(OC)c1 (stereo not drawn) next.
Response line: high interval

Prompt line: Field entry: C[N+](C)([O-])CCC=C1c2ccccc2CCc2ccccc21
Response line: high interval

Prompt line: Next compound up: Cc1cccc(-c2nc3ccc([N+](=O)[O-])cc3c(=O)o2)c1
Response line: high interval

Prompt line: Follow-up item: COc1cc(C(=O)c2cc(C)c3[nH]c4ccc(Cl)cc4c3c2C)cc(OC)c1OC
Response line: low interval

Prompt line: Can you handle O=c1c2ccccc2[se]n1-c1cccnc1 next?
Response line: middle interval

Prompt line: Record: CCN(CC)CCOc1ccc(/C=C(\C#N)c2ccc(OCCN(CC)CC)cc2)cc1
Response line: high interval

Prompt line: Now the compound NC(N)=NCCN=C(N)N
Response line: high interval

Prompt line: What about this compound? C=CC(Br)(CBr)CCC(Cl)C(C)C (stereo not drawn)
Response line: low interval

Prompt line: Next up: O=C1N=c2ccccc2=C1c1c(O)[nH]c2ccccc12
Response line: high interval

Prompt line: Then this compound: CNCCNc1c2c(c(NCCNC)c3c(CN(C)C)c[nH]c13)C(=O)c1ccccc1C2=O
Response line: low interval

Prompt line: Do the same for COc1cc(C[S+]2CCCC2)c(SC)cc1C[S+]1CCCC1 please
Response line: high interval

Prompt line: What do we get for CCCCc1c(OC)cc(O)c2c1C(=O)c1[nH]c(C(=O)O)c(O)c(=O)c1C2=O ?
Response line: high interval

###

System: PC-3 prostate
Assay: NCI tumour cell line growth inhibition, 48 h
experimentalReadout: TGI

compound	experimentalReadout	resultValue
Cc1ccc2c(n1)C(=O)c1[nH]c3ccccc3c1C2=O	TGI	> 100 µM
Cc1nc(N)sc1-c1ccnc(Nc2ccc(N3CCOCC3)cc2)n1	TGI	> 100 µM
CCOC(=O)C1=CC(C)(C(=O)OCC)Nc2c(nc(OC)n(C)c2=O)N1 (configuration not stated)	TGI	> 10 µM
COc1ccc(C(C)NNC(=O)c2ccncc2)c(OC)c1 (configuration not stated)	TGI	> 100 µM
O=C(CC(=O)Nc1cccc(C(=O)O)c1)Nc1cccc(C(=O)O)c1	TGI	> 100 µM
CCCCCCCCCC/C=C/CC(=O)SCCNC(=O)CCNC(=O)[C@@H](O)C(C)(C)COP(=O)(O)OP(=O)(O)OCC1OC(n2cnc3c(N)ncnc32)C(O)C1OP(=O)(O)O (some centres not stated)	TGI	> 10 µM
CN(c1ccc(Cl)cc1)S(=O)(=O)c1cccc([N+](=O)[O-])c1	TGI	> 100 µM
CN1C(=O)N/C(=C\c2ccc(S(=O)(=O)NN)cc2)C1=O	TGI	> 100 µM
Cc1cccc(-c2nc3ccc([N+](=O)[O-])cc3c(=O)o2)c1	TGI	> 100 µM
CN(c1ccc(Cl)cc1)S(=O)(=O)c1ccc([N+](=O)[O-])cc1	TGI	> 100 µM

Prompt line: Could you tell me which TGI is on file for O/N=C1/COC(C(F)(F)F)(C(F)(F)F)C1 ?
Response line: > 100 µM

Prompt line: Queued: CC(=O)c1c2c(cc3c1CC1(Cc4ccccc4C1=O)C3)CCC2 (configuration not stated)
Response line: > 100 µM
